Test system: K. pneumoniae NVT1001 strains with ESBL or AmpC β-lactamase plasmids
assay_name: Etest MIC of β-lactams, OmpK35/36 loss, ΔramR and/or extended-spectrum β-lactamase and AmpC β-lactamase (Table 8)
Type: cell-based, Klebsiella pneumoniae
condition_set: Klebsiella pneumoniae, CTX-M-14 on pACYC177; ΔramR mutant
parameter_measured: MIC

Illustrative cases are given below, each with its answer.
>  <compound>
CC(=O)OCC1=C(C(=O)O)N2C(=O)[C@@H](NC(=O)Cc3cccs3)[C@H]2SC1 [Cephalothin]

>  <assay_system>
K. pneumoniae NVT1001 strains with ESBL or AmpC β-lactamase plasmids

>  <MIC>
> 256 µg/mL

$$$$
>  <compound>
CCO/N=C(\C(=O)N[C@@H]1C(=O)N2C(C(=O)[O-])=C(Sc3nc(-c4cc[n+](C)cc4)cs3)CS[C@H]12)c1nsc(N)n1 [Ceftaroline]

>  <assay_system>
K. pneumoniae NVT1001 strains with ESBL or AmpC β-lactamase plasmids

>  <MIC>
> 256 µg/mL

$$$$

In: Tell me the measured MIC of C[C@H]1[C@H](NC(=O)/C(=N\OC(C)(C)C(=O)O)c2csc(N)n2)C(=O)N1S(=O)(=O)O [Aztreonam] , please.
Out: 16 µg/mL
